Assay: yeast display, Sf9 membrane polyspecificity reagent, FACS + sequencing; frameworks hold sequencing errors
quantity-kind: polyreactivity (PSR sort gate)

# example entries with known answers
# residues, polyreactivity (PSR sort gate)
rows = [
    ("QVQLVESGGGLVQAGGSLRLSCAASGFIISVYAMGWYRPAPGKERELVARIDSGGSTYYADSVKGRFTISRDNAKNTVYLQMNSLKPEDTAVYYGATDEGTVGGQQLRPLMDYWGQGTQVTVSS", "low polyreactivity"),
    ("QVQLVESGGGLVQAGGSLRLSCAASGSTFESYDMGWYRQAPGKERELVAAIDWSGGITYYADSVKGRFTISRDNAKNTVYLQMNSLKPEDTAVYYCNAGPYWWYYGEDYWGQGTQVTVSS", "low polyreactivity"),
    ("QVQLVESGGGLVQAGGSLRLSCAASGRTFYQYAMGWYRQAPGKERELVAAISRSGTSTYYADSVKGRFTISRDNAKNTVYLQMNSLKPEDTAVYYCYVLRYDYWGQGTQVTVSS", "high polyreactivity"),
    ("QVQLVESGGGLVQAGGSHRLSCAASGSIFRSNTMGWYRQAPGKERELVAAITWRRGSTYYADSVKGRFTISRDNAKNTVYLQMNSLKPEDTAVYDCNALYVSRDDYWGQGTQVTVSS", "high polyreactivity"),
]

polyreactivity (PSR sort gate) reading for "QVQLVESGGGLVQAGGSLRISCAASVSIFPGYAMGWSRQAPGKERELVATITWSGGSTYYADSVKGRFTISRDNAKNTVYLQMNSLKPEDTAVYYCNADSNWYYQWNYYCLYDYWGQGTQVTVSS" : low polyreactivity
